Tested on: NECB-1
Assay: Cytotoxicity mantle cell lymphoma
Settings: read-out: cytotoxicity IC50; NECB-1, mantle cell lymphoma
Reported pIC50 is given for each of the following molecules.
Just so you know, pIC50 here is -log10 of the concentration in molar units; reply with that number alone.

# smiles.representation, target.desc, pIC50
rows = [
    ("CC(C)C[C@H](NC(=O)[C@H](Cc1ccccc1)NC(=O)c1cnccn1)B(O)O", "NECB-1", 6.84),
    ("COc1cccc2c1C(=O)c1c(O)c3c(c(O)c1C2=O)C[C@@](O)(C(=O)CO)C[C@@H]3O[C@H]1C[C@H](N)[C@H](O)[C@H](C)O1", "NECB-1", 6.79),
    ("CC(=O)O[C@H]1C(=O)[C@@]2(C)[C@H]([C@H](OC(=O)c3ccccc3)[C@]3(O)C[C@H](OC(=O)[C@H](O)[C@@H](NC(=O)c4ccccc4)c4ccccc4)C(C)=C1C3(C)C)[C@]1(OC(C)=O)CO[C@@H]1C[C@@H]2O", "NECB-1", 7.19),
]

Now for a further molecule.
Enquiry: Request the reported pIC50 associated with CC(C)NCCCn1c(Sc2cc3c(cc2I)OCO3)nc2c(N)ncnc21
Return: 5.78

###

Tested on: FBMC fetal BM stroma
Experiment: Cytotoxicity normal tissue 72 hr
Format: cell-based
Settings: Homo sapiens
attribute.measured: IC50

Enquiry: Request the reported IC50 associated with N[C@@H](Cc1ccc(N(CCCl)CCCl)cc1)C(=O)O [Melphalan]
Return: > 10 µM

###

Tested on: Mino
Test: Cytotoxicity mantle cell lymphoma
Conditions: human, Mino mantle cell lymphoma cells, 72 h
attribute.measured: IC50

Enquiry: Request the reported IC50 associated with Cc1[nH]c2ccccc2c1CCNCc1ccc(/C=C/C(=O)NO)cc1
Return: 291 nM

###

Tested on: Mino
Details: human
attribute.measured: IC50 (nM)
Response body: numeric value in nM, unit text excluded.

# smiles.representation, target.desc, unit.of.measurement, IC50
measured = [
    ("CC(=O)O[C@H]1C(=O)[C@@]2(C)[C@H]([C@H](OC(=O)c3ccccc3)[C@]3(O)C[C@H](OC(=O)[C@H](O)[C@@H](NC(=O)c4ccccc4)c4ccccc4)C(C)=C1C3(C)C)[C@]1(OC(C)=O)CO[C@@H]1C[C@@H]2O", "Mino", "nM", 25),
]

Now for a further compound.
Enquiry: Request the reported IC50 associated with CC(C)C[C@H](NC(=O)[C@H](Cc1ccccc1)NC(=O)c1cnccn1)B(O)O
Return: 42

###

Test system: H226
Type: cell-based, human
attribute.measured: pIC50
Just so you know, pIC50 here is -log10 of the concentration in molar units; reply with that number alone.

Enquiry: # query: pIC50 | item N.N.[Cl][Pt][Cl] [Cisplatin] | system: H226
Return: 5.54

###

Experiment: Plasma protein binding, equilibrium dialysis
Format: in vitro ADME
Settings: rat plasma, 4 h, read-out: % bound (converted)
attribute.measured: fraction unbound at 4 h, 20 μM
Could you keep your reply to the number by itself?

Enquiry: Request the reported fraction unbound at 4 h, 20 μM associated with CN(C)CCNC(=O)c1cccc(NC(=O)Nc2ccc(N(CCCl)CCCl)cc2)c1
Return: 0.0031

###

Tested on: DLBCL (GBC) cell lines
Experiment: Combination of BO-1055 with PUH71, TT46, bortezomib, doxorubicin (Table 25)
Assay type: cell-based
Settings: Homo sapiens, SU-DHL-5, SUDHL5; read-out: IC50 single agent
attribute.measured: IC50 (nM)
Response body: numeric value in nM, unit text excluded.

Enquiry: Request the reported IC50 associated with CC(C)NCCCn1c(Sc2cc3c(cc2I)OCO3)nc2c(N)ncnc21
Return: 336
